The measurements presented in this section are drawn from the supplement of paper PMC3545927.

- Test System: furin, P09958;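 note: purified furin at 1:10 enzyme:substrate in 50 mM HEPES pH 7.5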
- Sequence (P09958 whole entry): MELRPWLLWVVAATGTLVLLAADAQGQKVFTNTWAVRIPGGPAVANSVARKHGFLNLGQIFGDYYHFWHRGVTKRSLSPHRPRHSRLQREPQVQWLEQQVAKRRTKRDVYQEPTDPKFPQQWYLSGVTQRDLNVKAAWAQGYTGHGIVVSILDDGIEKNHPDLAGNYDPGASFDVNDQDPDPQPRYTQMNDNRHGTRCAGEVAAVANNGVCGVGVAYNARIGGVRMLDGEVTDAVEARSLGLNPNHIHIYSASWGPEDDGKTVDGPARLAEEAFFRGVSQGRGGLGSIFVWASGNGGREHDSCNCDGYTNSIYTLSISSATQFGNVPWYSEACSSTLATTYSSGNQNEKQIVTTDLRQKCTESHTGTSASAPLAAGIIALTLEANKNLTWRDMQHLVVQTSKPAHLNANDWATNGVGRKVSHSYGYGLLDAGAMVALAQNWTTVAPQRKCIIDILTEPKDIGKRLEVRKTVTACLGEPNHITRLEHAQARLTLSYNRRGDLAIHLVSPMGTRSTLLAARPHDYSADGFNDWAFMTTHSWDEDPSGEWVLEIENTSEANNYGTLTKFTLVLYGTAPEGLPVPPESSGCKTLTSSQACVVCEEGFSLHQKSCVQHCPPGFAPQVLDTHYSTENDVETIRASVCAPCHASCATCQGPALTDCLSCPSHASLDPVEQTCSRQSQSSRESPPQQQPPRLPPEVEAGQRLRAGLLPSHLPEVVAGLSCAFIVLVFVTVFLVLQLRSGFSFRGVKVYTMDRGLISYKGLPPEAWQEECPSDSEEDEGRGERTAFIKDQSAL
- Test Summary: furin cleavage Z-score vs untreated control; higher = more cleavage, active = 3.5 or more, inactive = 1 or less, 8 variable residues between constant flanks
- Reported Conditions: 30 min
The other results are listed elsewhere or left out. The true hit rate is not given.
# if value of furin cleavage Z-score reaches 0.9, tag class 1; if it stays below, tag class 0

Could you please find out whether CAITTGSPITAGNASASA [HC803] has furin cleavage Z-score that meets 0.9 or exceeds it?
class 0

Further cases:
Check if furin cleavage Z-score >= 0.9 (inclusive). Item: CAGIYRFVAPAGNASASA [HC909]
class 0

Answer whether furin cleavage Z-score of CARVRRRGSPAGNASASA [FS-2108] is greater than or equal to 0.9.
class 1

Please indicate if the recorded furin cleavage Z-score for CARVPRKVQPAGNASASA [FS-3121] meets or exceeds 0.9.
class 1

Kindly determine if furin cleavage Z-score recorded for CARYIRSERSAGNASASA [FS-1611] is above or exactly 0.9.
class 1

Does furin cleavage Z-score meet or surpass 0.9 for CARVRRAVLPAGNASASA [FS-2536] ?
class 1
